The reported numbers originate from patent US20250163186A1.

- study_target: T1, CH2-4 constant domains of human IgE linked to a transmembrane protein, on 293 cells (human, UniProt P01854-1 104-428)
- T1 construct: domain: CH2-4 constant domains; also called human IgE-expressing 293 cells
- T1 sequence (P01854 other isoform, or with tags, fused parts or gaps): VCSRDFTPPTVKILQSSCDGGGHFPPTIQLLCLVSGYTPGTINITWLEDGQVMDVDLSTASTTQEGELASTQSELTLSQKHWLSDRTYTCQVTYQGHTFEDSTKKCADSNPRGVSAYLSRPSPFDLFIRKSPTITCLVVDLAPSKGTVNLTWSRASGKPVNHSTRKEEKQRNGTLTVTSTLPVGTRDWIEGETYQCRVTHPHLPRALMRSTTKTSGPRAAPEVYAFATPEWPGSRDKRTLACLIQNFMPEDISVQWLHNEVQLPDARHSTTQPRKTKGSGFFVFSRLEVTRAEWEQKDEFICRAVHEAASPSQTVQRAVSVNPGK
- experiment_notes: flow cytometry, 293 cells expressing human IgE CH2-4
Measured pKd, listed per entry for reference.
pKd (log units): -log10 of the concentration in mol/L.

• hzB10v28-NNT (Fc fusion, monomeric) VHH-Fc: EVQLLESGGGEVQPGGSLRLSCVASGLTFSSYNMGWLRQAPGKEREFVGLSGSSSTSTYYAESVKGRFTISRDNSKNTVYLQMSSLRAEDTAVYYCAARRLLSTYWSDRSWDFWGQGTQVTVEPGGPSVFLFPPKPKDTLMISRTPEVTCVVVDVSHEDPEVKFNWYVDGVEVHNAKTKPREEQYNSTYRVVSVLTVLHQDWLNGKEYKCKVSNKALPAPIEKTISKAKGQPREPQVYTLPPSRDELTKNQVNLTCLVKGFYPSDIAVEWESNGQPENNYKTTPPVLDSDGSFFLNSTLTVDKSRWQQGNVFSCSVMHEALHNHYTQKSLSLSPGK = 5.15

[ask] Given the entry hzB10v29-NNT (Fc fusion, monomeric) VHH-Fc: EVQLLESGGGEVQPGGSLRLSCVASGLTFSSYNMGWLRQAPGKEREFVGLSGSSSTSTYYAESVKGRFTISRDNSKNTVYLQMQSLRAEDTAVYYCAARRLLSTYWSDRSWDFWGQGTQVTVEPGGPSVFLFPPKPKDTLMISRTPEVTCVVVDVSHEDPEVKFNWYVDGVEVHNAKTKPREEQYNSTYRVVSVLTVLHQDWLNGKEYKCKVSNKALPAPIEKTISKAKGQPREPQVYTLPPSRDELTKNQVNLTCLVKGFYPSDIAVEWESNGQPENNYKTTPPVLDSDGSFFLNSTLTVDKSRWQQGNVFSCSVMHEALHNHYTQKSLSLSPGK , report its measured pKd.
[reply] 8.64

[ask] Name the reported pKd value associated with the binder B10-NNT (Fc fusion, monomeric; also called parental B10 monomeric VHH-hIgG1-Fc fusion (Fc NNT)) VHH-Fc: EVQLVQSGGELVQAGGSLRLSCVASGLTFSSYNMGWLRQAPGKEREFVGMSGSSSTSTYYADSVKGRFTISRDNSKNTVYLQMNSLKPEDTAVYYCAARRMLSTYWSDRSWDFWGQGTQVTVKPGGPSVFLFPPKPKDTLMISRTPEVTCVVVDVSHEDPEVKFNWYVDGVEVHNAKTKPREEQYNSTYRVVSVLTVLHQDWLNGKEYKCKVSNKALPAPIEKTISKAKGQPREPQVYTLPPSRDELTKNQVNLTCLVKGFYPSDIAVEWESNGQPENNYKTTPPVLDSDGSFFLNSTLTVDKSRWQQGNVFSCSVMHEALHNHYTQKSLSLSPGK
[reply] 9.34

[ask] Recorded pKd for hzB10v31-NNT (Fc fusion, monomeric) VHH-Fc: EVQLLESGGGEVQPGGSLRLSCVASGLTFSSYNMGWLRQAPGKEREFVGLSGSSSTSTYYAESVKGRFTISRDNSKNTVYLQMNTLRAEDTAVYYCAARRLLSTYWSDRSWDFWGQGTQVTVEPGGPSVFLFPPKPKDTLMISRTPEVTCVVVDVSHEDPEVKFNWYVDGVEVHNAKTKPREEQYNSTYRVVSVLTVLHQDWLNGKEYKCKVSNKALPAPIEKTISKAKGQPREPQVYTLPPSRDELTKNQVNLTCLVKGFYPSDIAVEWESNGQPENNYKTTPPVLDSDGSFFLNSTLTVDKSRWQQGNVFSCSVMHEALHNHYTQKSLSLSPGK , please?
[reply] 9.01

[ask] Consider the binder hzB10v30-NNT (Fc fusion, monomeric) VHH-Fc: EVQLLESGGGEVQPGGSLRLSCVASGLTFSSYNMGWLRQAPGKEREFVGLSGSSSTSTYYAESVKGRFTISRDNSKNTVYLQMTSLRAEDTAVYYCAARRLLSTYWSDRSWDFWGQGTQVTVEPGGPSVFLFPPKPKDTLMISRTPEVTCVVVDVSHEDPEVKFNWYVDGVEVHNAKTKPREEQYNSTYRVVSVLTVLHQDWLNGKEYKCKVSNKALPAPIEKTISKAKGQPREPQVYTLPPSRDELTKNQVNLTCLVKGFYPSDIAVEWESNGQPENNYKTTPPVLDSDGSFFLNSTLTVDKSRWQQGNVFSCSVMHEALHNHYTQKSLSLSPGK and give its measured pKd.
[reply] 8.79
